Provenance of the data: patent US20220064329A1

Catalogue of Kd readings, one per entry.
Target: T1, recombinant human activated Factor VII (FVIIa) (human, UniProt P08709 61-212; P08709 213-466, Gla domain: ten glutamate residues may be gamma-carboxylated)
T1 construct: two-chain form after cleavage between Arg152 and Ile153; light chain (Gla, EGF domains) and heavy chain (protease domain) tethered by a disulfide bond; also called rFVIIa; human FVIIa
T1 sequence 1: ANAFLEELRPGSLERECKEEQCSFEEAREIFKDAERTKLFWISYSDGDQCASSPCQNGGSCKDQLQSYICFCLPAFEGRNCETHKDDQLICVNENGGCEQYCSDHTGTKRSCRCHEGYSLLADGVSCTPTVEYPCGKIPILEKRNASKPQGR
T1 sequence 2: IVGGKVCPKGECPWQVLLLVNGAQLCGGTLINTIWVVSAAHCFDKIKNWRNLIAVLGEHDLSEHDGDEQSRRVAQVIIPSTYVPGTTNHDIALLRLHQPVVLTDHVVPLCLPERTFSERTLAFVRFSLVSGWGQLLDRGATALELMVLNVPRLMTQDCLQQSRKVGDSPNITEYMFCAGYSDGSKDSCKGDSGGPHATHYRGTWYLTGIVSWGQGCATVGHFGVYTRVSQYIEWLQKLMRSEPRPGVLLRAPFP
Test: SPR (Biacore T200), antibody captured on anti-murine IgG, FVIIa injected at 5-135 nM, 1:1 model
Numbers only; they are read as nM.

| BINDER | VALUE_REPORTED |
| --- | --- |
| mAb0005 (antibody, V domains shown, fully murine, hybridoma-derived; also called 11F2; mAb005) VH: DVQLQESGPGLVEPSQSLSLTCTVTGYSITSDCAWSWIRQFPGNKLEWMGYINYSGSTNYNPSLKSRISVTRDTSKNQFFLRLSSVTAEDTATYYCTRSVNYYGNSFAVGYWGQGTSVTVSS VL: DIVMTQSPATLSVTAGDRVSLSCRASQGISDYLHWYQQKSHESPRLLIKYTSQPVSGIPSRFSGSGSGSEFTLSINSVEPEDVGVYYCQNGHSFPLTFGAGTKLELK | 0.14 |

Attention now turns to another entry.
For the binder mAb0587 (antibody, V domains shown, fully murine, hybridoma-derived; also called 12F39) VH: QVQLQQSGAELLKPGASVKISCKATDYTFSRYWIEWVKQRPGHGLEWIGEILPGSVNIKYNEIFKGKATFTAETSSNTAYMQLSSLTSEDSAVYYCTRTPYLQRGAYWGQGTLVTVSA VL: QIVLTQSPAIMSASPGEKVTITCSASSSVSYMFWFQQKPGTSPKLWIYSTSNLASGVPARFSGSGSGTSYSLTISRMEAEDAATYYCQQRSSYPLTFGAGTKLELK , what Kd is on record?
0.49
